molecular target: Voltage-gated potassium channel subunit beta-2 (Rattus norvegicus) (UniProt P62483); assay: inhibitors of rat Kvbeta2 reductase activity – biochemical, NADPH fluorescence, primary screen (AID 622); details: recombinant KvBeta, 4-cyanobenzaldehyde reduction, at 10 µM, hits give high values;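 also: slope of raw intensity against log time taken from 70 to 1610 s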
Sequence (P62483 whole entry, looked up): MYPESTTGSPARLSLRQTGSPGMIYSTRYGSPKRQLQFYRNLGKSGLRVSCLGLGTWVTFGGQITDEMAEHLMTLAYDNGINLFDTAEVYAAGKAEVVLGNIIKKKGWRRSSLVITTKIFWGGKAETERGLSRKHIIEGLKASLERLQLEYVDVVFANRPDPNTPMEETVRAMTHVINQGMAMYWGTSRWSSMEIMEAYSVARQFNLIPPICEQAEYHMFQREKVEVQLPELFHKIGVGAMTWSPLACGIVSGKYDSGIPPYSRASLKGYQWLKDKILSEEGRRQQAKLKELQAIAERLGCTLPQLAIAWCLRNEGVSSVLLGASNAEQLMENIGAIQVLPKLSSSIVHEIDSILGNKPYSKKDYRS
Calls of active or inactive are those of the source.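 The calls were made as follows: active = fluorescence slope higher than the sample average by over 3 SD (cut at about -0.22 in these data, passing the limit was not always enough); inactive = the rest.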
PARAMETER: fluorescence slope

Data request: fluorescence slope lookup needed for CCOCC(=O)NC1CCSC1=O (configuration not stated) , thanks.
Data returned: -0.48 (inactive)

Data request: Suppose we examine the compound Cc1cc(C)c(C(=O)CN2CCOCC2)c(C)c1 ; what fluorescence slope value has been reported?
Data returned: -0.419 (inactive)

Data request: Which fluorescence slope is listed for CCn1c(O)c(C(=O)CC2NCCc3ccccc32)c(=O)n(CC)c1=S (configuration not stated) ?
Data returned: -0.399 (inactive)

Data request: May I ask what fluorescence slope has been recorded for CN1CCN(c2c[nH]c(=O)[nH]c2=O)CC1 ?
Data returned: -0.495 (inactive)

Data request: // fluorescence slope lookup, key: Cc1ccc(C)c(NC2=NCCCS2)c1
Data returned: -0.566 (inactive)

Data request: Using the record for CCn1nc(-c2ccccc2)nc2c(=O)n(C)c(=O)nc1-2 , report its fluorescence slope.
Data returned: -0.457 (inactive)

Data request: What value of measured fluorescence slope is listed for COc1ccc(C2SCC(=O)Nc3c2c(=O)[nH]n3C2CCCCCC2)cc1 (configuration not stated) ?
Data returned: -0.478 (inactive)

Data request: What does the record list as fluorescence slope for O=C(CN1CCN(Cc2cccc(Cl)c2)C1=O)N1CCC2(CC1)OCCO2 ?
Data returned: -0.578 (inactive)

Data request: # lookup: fluorescence slope of COc1ccc(CCn2c(O)c(C=NCCCN(C)C)c(=O)[nH]c2=O)cc1OC
Data returned: -0.446 (inactive)

Data request: Which fluorescence slope is listed for CCOc1ccccc1-n1c(O)c(C=Nc2ccc(N(CC)CC)cc2)c(=O)[nH]c1=O ?
Data returned: -0.43 (inactive)

Data request: Value lookup for fluorescence slope; key = Cn1c(O)c(C=NCc2ccco2)c(=O)n(C)c1=O
Data returned: -0.557 (inactive)

Data request: Look up fluorescence slope: CCCC(=O)OCC[N+](C)(C)C
Data returned: -0.481 (inactive)
